Tested on: Hepacivirus hominis
Test: Inhibition of His-tagged recombinant NS5B Cdelta 21 polymerase expressed in Escherichia coli DH5alpha at 250 uM by standard primer dependent elongation assay relative to control
EXPERIMENTAL READOUT: inhibition (%)
// units = %; emit number, no label

QUERY: // query inhibition value for entry `O=c1oc2ccccc2c2c1ncn2-c1ccccc1`
RESULT: 62.5

QUERY: Now the compound `N#Cc1nc(-c2ccccc2)c(-c2ccccc2)nc1C#N`
RESULT: 48.6

QUERY: Now the compound `O=C(O)CN1C(=O)/C(=C/c2ccc(C(F)(F)F)cc2)SC1=S`
RESULT: 71

QUERY: Now the compound `O=C(O)c1ccc2c(c1)C(=O)N(c1cccc(O)c1)C2=O`
RESULT: 55

Reference source: ChEMBL document CHEMBL1177659
